- assayed.system: DRB1*1101 (Homo sapiens, UniProt P01903+P01911, A100R/A169T/A87E/I96F/K41T/L162R/M171V/P40S/Q125H/Q178H/Q39Y/Q99D/R42S/S66Y/T262R/V115G/W38E)
- Construct: Epstein-Barr virus (EBV) transformed homozygous cell lines were used as sources of human HLA Class II molecules; endogenous in cells; host or cells: SWEIG (EBV-transformed homozygous B cell line)
- Sequence (P01903 26-254, other chains not shown): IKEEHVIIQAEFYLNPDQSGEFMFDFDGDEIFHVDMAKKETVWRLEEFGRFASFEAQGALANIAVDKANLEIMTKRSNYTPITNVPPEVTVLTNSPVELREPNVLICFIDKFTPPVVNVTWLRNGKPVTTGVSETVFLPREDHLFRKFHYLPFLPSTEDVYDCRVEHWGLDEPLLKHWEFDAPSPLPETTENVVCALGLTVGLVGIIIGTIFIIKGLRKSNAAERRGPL
- test.details: Class II peptide-binding assay DRB1*1101 (DR5w11)
- cond: known HLA-DR and DQ restricted epitopes, Table 6
metric.name: IC50
Remember to quote the unit after the number.

Which IC50 reading was recorded for the compound CC[C@H](C)[C@H](NC(=O)[C@@H](NC(=O)[C@H](CCCCN)NC(=O)[C@H](CCC(=O)O)NC(=O)[C@H](CC(C)C)NC(=O)[C@H](CC(C)C)NC(=O)[C@@H]1CCCN1C(=O)[C@H](CC(C)C)NC(=O)[C@@H](N)CC(C)C)C(C)C)C(=O)NCC(=O)N[C@@H](C)C(=O)NCC(=O)N[C@@H](CCCCN)C(=O)N1CCC[C@H]1C(=O)N[C@@H](CC(C)C)C(=O)O ?
6.69 µM

====

Documented IC50 across a set of sequences
- assayed.system: DRB1*0405 (Homo sapiens, UniProt P01903+P01911, A100R/A169T/D86S/F76Y/I96L/K127E/L162R/M171V/N62H/P40V/Q125Y/R42H/S133A/S149N/S66Y/V115G/V209L/W38E)
- Construct: Epstein-Barr virus (EBV) transformed homozygous cell lines were used as sources of human HLA Class II molecules; endogenous in cells; host or cells: KT3 (EBV-transformed homozygous B cell line)
- test.details: Class II peptide-binding assay DRB1*0405 (DR4w15)
Ends that are not written are not given here.

Would you please look over these solved cases?
YTLLQAAPALDKLKLTGDEATGANI :: 108 nM
DTGRKLFRVYSNFLR :: 39 nM

Which IC50 reading was recorded for the sequence DIEKKIAKMEKASSVFNVVNS ?
3390 nM

====

- assayed.system: DRB4*0101 (Homo sapiens, UniProt P01903+P13762, G164S)
- Construct: expressed in transfected cells; host or cells: transfected fibroblasts L257.6
- test.details: Class II peptide-binding assay DRB4*0101 (DRw53)
metric.name: pIC50
Note: pIC50 values are expressed as the negative base-10 logarithm of concentration in M.

Would you please look over these solved cases?
CC[C@H](C)[C@H](NC(=O)CNC(=O)[C@@H]1CCCN1C(=O)[C@H](CC(C)C)NC(=O)[C@H](CC(=O)O)NC(=O)[C@H](Cc1ccccc1)NC(=O)[C@H](CCC(=O)O)NC(=O)[C@@H](NC(=O)[C@@H](NC(=O)[C@H](Cc1ccccc1)NC(=O)[C@@H](N)CCC(=O)O)C(C)C)C(C)C)C(=O)N[C@@H](CCCCN)C(=O)N[C@@H](C)C(=O)O :: 5.37
CC(C)C[C@H](NC(=O)[C@H](CC(=O)O)NC(=O)[C@H](CC(N)=O)NC(=O)[C@H](CO)NC(=O)[C@H](Cc1ccc(O)cc1)NC(=O)[C@@H](NC(=O)[C@H](CCCNC(=N)N)NC(=O)[C@H](Cc1ccccc1)NC(=O)[C@H](CC(C)C)NC(=O)[C@H](CCCCN)NC(=O)[C@H](CCCNC(=N)N)NC(=O)[C@H](Cc1ccccc1)NC(=O)[C@@H](NC(=O)[C@@H](N)CC(=O)O)[C@@H](C)O)C(C)C)C(=O)N[C@@H](CCCNC(=N)N)C(=O)O :: 5.86
CC[C@H](C)[C@H](NC(=O)[C@H](CO)NC(=O)[C@H](CCC(=O)O)NC(=O)[C@H](CC(C)C)NC(=O)[C@H](C)NC(=O)[C@@H](N)CC(=O)O)C(=O)N[C@@H](CCSC)C(=O)N[C@H](C(=O)N[C@H](C(=O)N[C@@H](CCCCN)C(=O)N[C@@H](CO)C(=O)N[C@H](C(=O)N[C@@H](CO)C(=O)N[C@@H](Cc1ccccc1)C(=O)N[C@@H](CCCNC(=N)N)C(=O)O)C(C)C)[C@@H](C)O)[C@@H](C)O :: 7.16

# context switch: different molecule, same pIC50
Which pIC50 reading was recorded for the molecule CC[C@H](C)[C@H](NC(=O)[C@H](Cc1ccc(O)cc1)NC(=O)[C@@H]1CCCN1C(=O)[C@H](CC(=O)O)NC(=O)[C@H](CCC(=O)O)NC(=O)[C@H](CC(C)C)NC(=O)[C@@H](NC(=O)[C@H](C)N)C(C)C)C(=O)N[C@@H](CC(C)C)C(=O)N[C@@H](CC(C)C)C(=O)N[C@H](C(=O)N[C@@H](CO)C(=O)N[C@@H](CO)C(=O)N[C@@H](CCCCN)C(=O)N[C@H](C(=O)N[C@@H](CO)C(=O)O)C(C)C)C(C)C ?
5.38
